Reference source for all entries: paper PMC12416549

Target: T1, TNFR1 (Homo sapiens, UniProt P19438)
T1 chain: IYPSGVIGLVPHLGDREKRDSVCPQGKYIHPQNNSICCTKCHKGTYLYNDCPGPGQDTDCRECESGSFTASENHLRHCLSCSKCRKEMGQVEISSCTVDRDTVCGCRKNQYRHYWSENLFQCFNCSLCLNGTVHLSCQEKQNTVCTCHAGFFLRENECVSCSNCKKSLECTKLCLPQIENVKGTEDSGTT
Test: yeast display SC50
assay.metric: apparent Kd (screen) (nM)
Numbers only, in nM.

- binder: "A91V (designed binder) MTLQELLREEALRRAEAEAFRYALELLAEKFPEQKEYLLDLAEEIESQIRSLSGVDVEDVRKFLDKEWAWVKELLAEHPAELAEVEAARAVRLAELRAEVEAKVAA"
  readout.units: "nM"
  apparent Kd (screen): 0.539

Now, please, on to the next binder.
Supply recorded apparent Kd (screen) for E33A (designed binder) MTLQELLREEALRRAEAEAFRYALELLAEKFPAQKEYLLDLAEEIESQIRSLSGVDVEDVRKFLDKEWAWVKELLAEHPAELAEVEAARAARLAELRAEVEAKVAA here.
0.208
